# Tested on: Erythropoietin secretion, Hep-3B cells
# experiment: Cellular assay: EPO secretion in Hep-3B cells
# Format: cell-based
# assaySetup: Homo sapiens, Hep3B, 100 μM compound, 24 hours, percent of EPO secretion relative to assay control compound 7-[(4-Chloro-phenyl)-(5-methyl-isoxazol-3-ylamino)-methyl]-quinolin-8-ol, read-out: Cellular % EPO Stimulation
# Experimental: Hep-3B cells (ATCC, Manassas, Va.) were plated in 96-well plates at 20,000 cells per well in 100 μl of DMEM containing 10% fetal bovine serum, 1% non-essential amino acids, 50 IU/mL of penicillin and 50 μg/mL of streptomycin (all cell culture reagents from Invitrogen, Carlsbad, Calif.). Twenty-four hours after plating, compounds were added and incubated for an additional 24 hours. […] Erythropoietin in the supernatant was detected according to the manufacturer's instructions as follows. […]
measurementLabel: activation at 100 µM

>>> result("CCN(CC)c1nc(-n2cc(C(=O)O)cn2)nc2ccc(Oc3ccc(Cl)cc3)cc12 [Example 60]")
"22%"
>>> result("CCN(CC)CCNc1nc(-n2cc(C(=O)O)cn2)nc2cc(F)c(Oc3c(C)cccc3C)cc12 [Example 10]")
"13%"
>>> result("CCN(CC)c1nc(-n2cc(C(=O)O)cn2)nc2cc(Oc3ccccc3)ccc12 [Example 83]")
"25%"
>>> result("CN(C)c1nc(-n2cc(C(=O)O)cn2)nc2ccc(C3CCCCC3)cc12 [Example 38]")
"61%"
>>> result("N#CNc1nc(-n2cc(C(=O)O)cn2)nc2ccc(C3CCCCC3)cc12 [Example 35]")
"67%"
>>> result("CC(C)c1ccc2nc(-n3cc(C(=O)O)cn3)nc(N3CCOCC3)c2c1 [Example 184]")
"24%"
>>> result("CCN(CC)c1nc(-n2cc(C(=O)O)cn2)nc2ccc(C(C)C)cc12 [Example 186]")
"43%"
>>> result("O=C(O)c1cnn(-c2nc(NC3CCOCC3)c3cc(Oc4ccc(Cl)cc4)ccc3n2)c1 [Example 68]")
"40%"

# credit: patent US10246442B2
